meta.source: paper PMC5540273

Reported %Inh is given for each of the following compounds.
System: MKNK1;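 note: KINOMEscan kinase panel screen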
Conditions: concentration: 1 μM, replicates: in singlicate; n = 1
Note to self: number, then unit, no commentary.

Here are 3 compounds together with their reported answers.
[
  {
    "smiles-code": "CCc1nc(-c2cccc(C)c2)c(-c2ccnc(NC(=O)c3ccccc3)c2)s1",
    "result": "0%"
  },
  {
    "smiles-code": "Cc1ccc(O)cc1Nc1cc(C(F)(F)F)nc2ccc(-c3ccncc3)cc12",
    "result": "0%"
  },
  {
    "smiles-code": "FC(F)(F)c1ccc(-c2nn3ncccc3c2-c2ccnc(Nc3cccc(C(F)(F)F)c3)n2)cc1",
    "result": "0%"
  }
]

stdin: Given the entry `Fc1cccc(COc2ccc(Nc3ncnc4sc(-c5ccc[nH]5)cc34)cc2Cl)c1` , report its measured %Inh.
stdout: 12%
